// data source = ChEMBL document CHEMBL1201862

# assayed_system: UniProtKB P49327
# Sequence (P49327 whole entry, the tested form may be a part): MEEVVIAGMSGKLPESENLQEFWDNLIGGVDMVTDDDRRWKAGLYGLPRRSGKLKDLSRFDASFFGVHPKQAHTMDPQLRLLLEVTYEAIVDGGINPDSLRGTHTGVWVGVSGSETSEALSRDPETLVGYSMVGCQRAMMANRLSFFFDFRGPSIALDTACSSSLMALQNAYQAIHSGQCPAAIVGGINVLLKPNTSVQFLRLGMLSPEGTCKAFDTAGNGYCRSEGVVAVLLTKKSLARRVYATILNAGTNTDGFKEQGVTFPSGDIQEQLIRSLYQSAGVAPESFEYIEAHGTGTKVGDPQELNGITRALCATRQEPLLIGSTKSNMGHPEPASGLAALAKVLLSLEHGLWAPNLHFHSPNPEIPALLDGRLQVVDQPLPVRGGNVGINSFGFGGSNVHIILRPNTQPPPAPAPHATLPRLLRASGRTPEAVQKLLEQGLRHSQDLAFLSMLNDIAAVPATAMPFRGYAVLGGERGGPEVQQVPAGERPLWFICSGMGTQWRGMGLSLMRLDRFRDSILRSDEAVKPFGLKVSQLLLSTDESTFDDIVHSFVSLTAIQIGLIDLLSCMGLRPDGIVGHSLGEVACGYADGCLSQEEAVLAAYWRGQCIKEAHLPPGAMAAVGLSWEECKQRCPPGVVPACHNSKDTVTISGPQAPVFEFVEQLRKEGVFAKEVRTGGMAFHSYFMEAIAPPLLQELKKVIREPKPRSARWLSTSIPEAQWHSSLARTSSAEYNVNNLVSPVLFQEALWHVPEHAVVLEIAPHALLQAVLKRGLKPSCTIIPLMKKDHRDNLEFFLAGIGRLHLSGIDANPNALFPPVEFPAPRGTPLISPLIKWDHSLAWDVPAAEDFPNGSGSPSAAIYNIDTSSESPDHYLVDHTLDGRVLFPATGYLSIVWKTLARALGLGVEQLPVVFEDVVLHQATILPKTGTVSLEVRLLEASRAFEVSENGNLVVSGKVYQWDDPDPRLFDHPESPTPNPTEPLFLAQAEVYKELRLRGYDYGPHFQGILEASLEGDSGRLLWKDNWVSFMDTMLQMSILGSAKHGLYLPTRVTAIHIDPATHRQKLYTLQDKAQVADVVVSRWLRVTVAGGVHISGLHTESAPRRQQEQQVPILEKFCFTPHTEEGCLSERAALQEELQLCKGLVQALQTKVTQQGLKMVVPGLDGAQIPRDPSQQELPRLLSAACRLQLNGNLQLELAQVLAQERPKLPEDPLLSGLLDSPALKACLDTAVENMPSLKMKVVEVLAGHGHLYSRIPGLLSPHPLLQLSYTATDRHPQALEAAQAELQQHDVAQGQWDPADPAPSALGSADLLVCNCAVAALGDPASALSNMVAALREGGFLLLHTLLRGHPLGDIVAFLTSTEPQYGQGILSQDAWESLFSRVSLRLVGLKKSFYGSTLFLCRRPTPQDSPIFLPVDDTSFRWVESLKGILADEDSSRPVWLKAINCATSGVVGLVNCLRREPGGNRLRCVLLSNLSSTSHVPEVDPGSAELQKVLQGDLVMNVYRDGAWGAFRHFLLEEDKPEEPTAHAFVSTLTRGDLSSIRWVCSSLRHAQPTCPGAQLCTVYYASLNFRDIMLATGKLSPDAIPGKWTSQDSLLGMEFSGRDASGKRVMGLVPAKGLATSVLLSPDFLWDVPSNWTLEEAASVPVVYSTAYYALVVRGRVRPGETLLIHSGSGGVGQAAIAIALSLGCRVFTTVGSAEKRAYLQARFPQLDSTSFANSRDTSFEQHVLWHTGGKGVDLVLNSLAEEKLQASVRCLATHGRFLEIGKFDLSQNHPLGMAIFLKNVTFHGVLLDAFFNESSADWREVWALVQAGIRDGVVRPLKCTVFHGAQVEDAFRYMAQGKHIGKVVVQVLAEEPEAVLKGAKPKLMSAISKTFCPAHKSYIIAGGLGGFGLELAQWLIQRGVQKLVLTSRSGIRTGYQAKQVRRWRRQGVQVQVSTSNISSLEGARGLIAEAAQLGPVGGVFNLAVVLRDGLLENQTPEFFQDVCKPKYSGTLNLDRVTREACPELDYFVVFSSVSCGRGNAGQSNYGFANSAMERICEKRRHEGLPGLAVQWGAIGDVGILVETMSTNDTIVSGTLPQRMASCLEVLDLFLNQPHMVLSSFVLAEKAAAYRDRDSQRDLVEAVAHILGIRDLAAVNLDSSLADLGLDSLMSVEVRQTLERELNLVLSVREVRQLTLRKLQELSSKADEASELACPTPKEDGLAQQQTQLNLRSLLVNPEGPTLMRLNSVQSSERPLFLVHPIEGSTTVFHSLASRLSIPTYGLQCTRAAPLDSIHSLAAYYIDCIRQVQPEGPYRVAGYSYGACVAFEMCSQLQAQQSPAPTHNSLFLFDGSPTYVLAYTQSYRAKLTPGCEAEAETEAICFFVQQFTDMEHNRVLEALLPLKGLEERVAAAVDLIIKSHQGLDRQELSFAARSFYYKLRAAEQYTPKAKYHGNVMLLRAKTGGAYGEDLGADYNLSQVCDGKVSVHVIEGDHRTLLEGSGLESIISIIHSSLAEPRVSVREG
# protocol: FAS thioesterase domain inhibitors, dose response, biochemical, kinetic fluorescence intensity (AID 624326);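 note: rate of fluorescence rise from hydrolysis of a fluorogenic O-methyl fluorescein ester substrate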
# Type: functional
The source made the active and inactive calls.
In this section, each of the molecules is paired with its reported IC50.

These solved cases illustrate the format of a correct answer.
molecule=CN(CC(=O)Nc1ccc(F)cc1)C(=O)COC(=O)c1cc([N+](=O)[O-])ccc1N1CCOCC1 property_label=IC50 observed="7.99 µM (active)"
molecule=C[C@@H](NC(=O)c1[nH]cnc1C(=O)Nc1ccc(Cl)cc1)c1ccccc1 property_label=IC50 observed="7.01 µM (active)"
molecule="O=C1C(F)=CC(COC(c2ccccc2)(c2ccccc2)c2ccccc2)OC1n1cc(F)c(=O)[nH]c1=O (stereo not drawn)" property_label=IC50 observed="8.13 µM (active)"
molecule=O=C(CSc1nc2ccccc2n1S(=O)(=O)c1cccc([N+](=O)[O-])c1)NCCc1ccccc1 property_label=IC50 observed="2.4 µM (active)"
molecule=COc1ccc(C(=O)Nc2cc([N+](=O)[O-])ccc2N2CCCC2)cc1 property_label=IC50 observed="12.3 µM (active)"
molecule=COc1ccc(NC(=O)Nc2cccc3c2O[C@H](CN(C)C(=O)Nc2ccc(C(F)(F)F)cc2)[C@@H](C)CN([C@H](C)CO)C3=O)cc1 property_label=IC50 observed="7.98 µM (active)"

In: # return IC50 for COc1ccccc1NC(=O)COC(=O)c1cc([N+](=O)[O-])ccc1N1CCCC1 , test system: UniProtKB P49327
Out: 6.41 µM (active)

In: # return IC50 for O=C(NCCN1C(=O)S/C(=C\c2ccccc2)C1=O)C1CCN(S(=O)(=O)c2cccs2)CC1 , test system: UniProtKB P49327
Out: 18.1 µM (active)

---

In this section, each of the molecules is paired with its reported IC50.
# assayed_system: Carboxy-terminal domain RNA polymerase II polypeptide A small phosphatase 1 (Homo sapiens)
# Sequence (Q9GZU7 whole entry, the tested form may be a part): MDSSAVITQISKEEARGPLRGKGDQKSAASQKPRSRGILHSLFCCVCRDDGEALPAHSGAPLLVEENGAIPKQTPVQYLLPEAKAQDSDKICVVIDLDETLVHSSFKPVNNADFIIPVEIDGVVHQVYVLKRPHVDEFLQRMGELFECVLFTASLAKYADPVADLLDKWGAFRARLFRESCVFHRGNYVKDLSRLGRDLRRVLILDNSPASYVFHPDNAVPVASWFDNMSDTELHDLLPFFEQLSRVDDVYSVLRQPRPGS
# protocol: inhibitors of CTDSP1, concentration-response testing, biochemical assay, absorbance-based, actives from ultra-high-throughput screening (AID 540297)
# Assay type: functional
Active and inactive are the calls of the source.

These solved cases illustrate the format of a correct answer.
molecule=O=C(O)CCN1C(=O)/C(=C2\C(=O)N(Cc3ccc(F)cc3)c3ccccc32)SC1=S property_label=IC50 observed="3.03 µM (active)"
molecule="CON=C(C(=O)NC1C(=O)N2C(C(=O)O)=C(CSc3nc(=O)c(=O)[nH]n3C)CSC12)c1csc(N)n1 (stereo not drawn)" property_label=IC50 observed="2.89 µM (active)"
molecule=O=C(OCc1cc(=O)n2c(n1)sc1ccccc12)c1ccc2c(=O)n3c(nc2c1)CCC3 property_label=IC50 observed="5.85 µM (active)"
molecule="CC1CC(C)CN(C(=O)COC(=O)/C=C/c2ccco2)C1 (stereo not drawn)" property_label=IC50 observed="19.9 µM (active)"
molecule=O=C(O)c1cccc(-n2cccc2/C=C2/NC(=O)N(c3cccc(Cl)c3)C2=O)c1 property_label=IC50 observed="9.53 µM (active)"
molecule=O=C1CC(=O)N2N=C(c3ccc([N+](=O)[O-])cc3)SC2=N1 property_label=IC50 observed="5.67 µM (active)"
molecule="CC1CCC2(CC1)NC(=O)N(CC(=O)Nc1sc3c(c1C(N)=O)CCC3)C2=O (stereo not drawn)" property_label=IC50 observed="3.44 µM (active)"

In: # return IC50 for COc1cccc(C(=O)Nc2ccc3c(c2)C(=O)c2ccccc2C3=O)c1 , test system: Carboxy-terminal domain RNA polymerase II polypeptide A small phosphatase 1 (Homo sapiens)
Out: 6.16 µM (active)
